Reference for the values: ChEMBL document CHEMBL1121883

# Test system: Rattus norvegicus
# Test Summary: Dose of compound causing a neurological deficit in 50% of rat after ip administration.
# Assay type: functional
Result Type: ND50

q: Consider the compound shown here: Cl.O=C(CCn1ccnc1)c1ccc2ccccc2c1 What is its recorded ND50?
a: >60 mg/kg

q: Another compound: Cl.O=C(Cn1ccnc1)c1ccc2ccccc2c1 [NAFIMIDONE HYDROCHLORIDE]
a: >100 mg/kg

q: Another: O=C1NC(=O)C(c2ccccc2)(c2ccccc2)N1 [PHENYTOIN]
a: >300 mg/kg

q: Also Br.CCc1ccc2cc(C(=O)Cn3ccnc3)ccc2c1 , if possible.
a: >100 mg/kg

q: Another compound to check: Cl.O=C(OC(Cn1ccnc1)c1ccc2ccccc2c1)c1ccccc1 (stereo unspecified)
a: >100 mg/kg

q: Same for Cl.c1ccc2cc(Cn3ccnc3)ccc2c1
a: 32 mg/kg
